Biological target: 5-HT5a (Homo sapiens)
Sequence (P47898 whole entry, species assumed): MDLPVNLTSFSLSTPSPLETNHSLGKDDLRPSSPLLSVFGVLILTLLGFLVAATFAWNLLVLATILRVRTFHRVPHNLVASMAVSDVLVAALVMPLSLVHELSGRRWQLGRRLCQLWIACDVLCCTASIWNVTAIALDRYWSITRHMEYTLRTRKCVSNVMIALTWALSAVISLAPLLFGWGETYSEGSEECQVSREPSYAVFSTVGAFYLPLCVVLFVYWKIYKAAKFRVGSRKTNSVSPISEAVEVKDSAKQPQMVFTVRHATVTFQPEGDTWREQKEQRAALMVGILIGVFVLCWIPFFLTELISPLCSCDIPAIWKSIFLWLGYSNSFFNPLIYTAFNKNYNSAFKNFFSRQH
REPORTED ENDPOINT: Ki

Solved entries:
Cc1[nH]c2ccc(Br)cc2c1CCN(C)C | > 1000 nM
Cc1[nH]c2ccc(Cl)cc2c1CCN(C)C | > 1000 nM

Would you kindly look at the next entry?
Quick check: Ki of CCc1[nH]c2ccc(Cl)cc2c1CCN(C)C ?
> 1000 nM

====

Quick record: pKi, 5-HT2a (Homo sapiens).
pKi: −log10 of the molar value.

CCc1[nH]c2ccc(Cl)cc2c1CCN(C)C | < 6.00

Would you kindly look at the next entry?
Quick check: pKi of Cc1[nH]c2ccc(Br)cc2c1CCN(C)C ?
< 6.00

====

Quick record: Ki, 5-HT1d (Homo sapiens).

Solved entries:
Cc1[nH]c2ccc(Br)cc2c1CCN(C)C | > 1000 nM
Cc1[nH]c2ccc(Cl)cc2c1CCN(C)C | > 1000 nM

Would you kindly look at the next entry?
Quick check: Ki of CCc1[nH]c2ccc(Cl)cc2c1CCN(C)C ?
> 1000 nM

====

Quick record: pKi, rat 5-HT6 stably transfected to HEK293 (Rattus norvegicus, UniProt P31388).
Answer as the number alone; pKi is minus log10 of concentration in mol/L.

Cc1[nH]c2ccc(Cl)cc2c1CCN(C)C [ST 1936, 5-chloro-2-methyl-N,N-dimethyltryptamine] | 7.51
Cc1[nH]c2ccc(Br)cc2c1CCN(C)C [ST 1938, 5-bromo-2-methyl-N,N-dimethyltryptamine] | 7.49
NCCc1c[nH]c2ccc(O)cc12 [Serotonin, reference compound] | 7.06

Would you kindly look at the next entry?
Quick check: pKi of CCc1[nH]c2ccc(Cl)cc2c1CCN(C)C [ST 2253, 5-Chloro-2-ethyl-N,N-dimethyltryptamine] ?
7.59

====

Molecular target: human 5-HT7 receptor stably transfected to CHO cells (Homo sapiens)
Construct: expressed in transfected cells; host or cells: CHO
Test: 5-HT7 receptor binding, [3H]-LSD displacement
Conditions: read-out: Affinity (Ki) 5-HT7; Table 2, cell printed in μM
REPORTED ENDPOINT: Ki

Quick check: Ki of CCc1[nH]c2ccc(Cl)cc2c1CCN(C)C ?
> 1 µM

====

List of pKi values.
Biological target: alpha1b adrenergic receptor (Homo sapiens, UniProt P35368)
Sequence (P35368 whole entry, species assumed): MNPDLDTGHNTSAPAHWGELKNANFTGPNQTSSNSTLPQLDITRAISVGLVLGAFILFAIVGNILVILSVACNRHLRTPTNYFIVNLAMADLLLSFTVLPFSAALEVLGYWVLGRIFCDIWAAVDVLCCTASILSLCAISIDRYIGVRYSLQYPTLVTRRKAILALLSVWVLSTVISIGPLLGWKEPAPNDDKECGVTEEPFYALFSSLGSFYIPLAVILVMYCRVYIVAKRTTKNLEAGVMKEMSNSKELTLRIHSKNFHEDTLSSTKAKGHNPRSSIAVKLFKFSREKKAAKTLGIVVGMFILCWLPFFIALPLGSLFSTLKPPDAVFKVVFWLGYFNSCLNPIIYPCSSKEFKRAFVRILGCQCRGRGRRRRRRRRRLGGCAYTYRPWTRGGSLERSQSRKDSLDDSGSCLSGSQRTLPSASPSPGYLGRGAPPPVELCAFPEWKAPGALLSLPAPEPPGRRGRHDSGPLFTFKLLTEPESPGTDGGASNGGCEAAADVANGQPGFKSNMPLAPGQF
Answer as the number alone; pKi is minus log10 of concentration in mol/L.

Cc1[nH]c2ccc(Cl)cc2c1CCN(C)C [ST 1936, 5-chloro-2-methyl-N,N-dimethyltryptamine] | 7.28

Would you kindly look at the next entry?
For alpha1b adrenergic receptor (Homo sapiens, UniProt P35368), provide pKi of CCc1[nH]c2ccc(Cl)cc2c1CCN(C)C [ST 2253, 5-Chloro-2-ethyl-N,N-dimethyltryptamine] please.
7.16

====

Molecular target: V1b of vasopressin (Homo sapiens)
Sequence (P47901 1-424): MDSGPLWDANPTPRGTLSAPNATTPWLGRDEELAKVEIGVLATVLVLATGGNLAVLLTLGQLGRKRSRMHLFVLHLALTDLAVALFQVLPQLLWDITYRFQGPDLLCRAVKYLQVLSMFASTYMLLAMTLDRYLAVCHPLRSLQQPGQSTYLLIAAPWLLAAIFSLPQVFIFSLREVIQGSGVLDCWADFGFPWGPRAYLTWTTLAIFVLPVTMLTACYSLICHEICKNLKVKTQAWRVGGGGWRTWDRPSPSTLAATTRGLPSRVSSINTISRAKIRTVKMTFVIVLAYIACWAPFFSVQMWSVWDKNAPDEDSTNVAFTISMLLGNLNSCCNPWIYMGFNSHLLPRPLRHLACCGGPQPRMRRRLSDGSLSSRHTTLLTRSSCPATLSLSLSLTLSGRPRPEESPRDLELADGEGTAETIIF
pKi: −log10 of the molar value.
REPORTED ENDPOINT: pKi

Cc1[nH]c2ccc(Cl)cc2c1CCN(C)C | ≤ 6.00

Would you kindly look at the next entry?
Quick check: pKi of CCc1[nH]c2ccc(Cl)cc2c1CCN(C)C ?
≤ 6.00

====

Target: beta1 adrenergic (Homo sapiens)
Sequence (P08588 whole entry): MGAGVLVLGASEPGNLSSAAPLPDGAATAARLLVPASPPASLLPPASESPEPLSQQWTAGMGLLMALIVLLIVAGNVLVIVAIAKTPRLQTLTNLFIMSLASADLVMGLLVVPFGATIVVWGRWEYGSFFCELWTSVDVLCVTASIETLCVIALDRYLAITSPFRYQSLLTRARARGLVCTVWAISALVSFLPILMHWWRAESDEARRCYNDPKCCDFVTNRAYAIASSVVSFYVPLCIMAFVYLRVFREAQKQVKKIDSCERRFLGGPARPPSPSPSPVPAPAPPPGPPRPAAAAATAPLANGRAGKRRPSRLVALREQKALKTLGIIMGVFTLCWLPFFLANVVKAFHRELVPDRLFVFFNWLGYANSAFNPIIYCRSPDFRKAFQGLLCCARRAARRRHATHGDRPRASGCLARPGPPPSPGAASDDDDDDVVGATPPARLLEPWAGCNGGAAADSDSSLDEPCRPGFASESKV
List of Ki values.

Cc1[nH]c2ccc(Cl)cc2c1CCN(C)C | ≥ 1 µM

Quick check: Ki of CCc1[nH]c2ccc(Cl)cc2c1CCN(C)C ?
≥ 1 µM

====

Quick record: IC50, rat 5-HT6 stably transfected to HEK293 (Rattus norvegicus, UniProt P31388).
Number only, in µM; omit the unit.

Cc1[nH]c2ccc(Cl)cc2c1CCN(C)C [ST 1936, 5-chloro-2-methyl-N,N-dimethyltryptamine] | 0.062
NCCc1c[nH]c2ccc(O)cc12 [Serotonin, reference compound] | 0.171
Cc1[nH]c2ccc(Br)cc2c1CCN(C)C [ST 1938, 5-bromo-2-methyl-N,N-dimethyltryptamine] | 0.062

For rat 5-HT6 stably transfected to HEK293 (Rattus norvegicus, UniProt P31388), provide IC50 of CCc1[nH]c2ccc(Cl)cc2c1CCN(C)C [ST 2253, 5-Chloro-2-ethyl-N,N-dimethyltryptamine] please.
0.052

====

pKi: −log10 of the molar value.
Quick record: pKi, UniProtKB P35367.
Sequence (P35367 whole entry): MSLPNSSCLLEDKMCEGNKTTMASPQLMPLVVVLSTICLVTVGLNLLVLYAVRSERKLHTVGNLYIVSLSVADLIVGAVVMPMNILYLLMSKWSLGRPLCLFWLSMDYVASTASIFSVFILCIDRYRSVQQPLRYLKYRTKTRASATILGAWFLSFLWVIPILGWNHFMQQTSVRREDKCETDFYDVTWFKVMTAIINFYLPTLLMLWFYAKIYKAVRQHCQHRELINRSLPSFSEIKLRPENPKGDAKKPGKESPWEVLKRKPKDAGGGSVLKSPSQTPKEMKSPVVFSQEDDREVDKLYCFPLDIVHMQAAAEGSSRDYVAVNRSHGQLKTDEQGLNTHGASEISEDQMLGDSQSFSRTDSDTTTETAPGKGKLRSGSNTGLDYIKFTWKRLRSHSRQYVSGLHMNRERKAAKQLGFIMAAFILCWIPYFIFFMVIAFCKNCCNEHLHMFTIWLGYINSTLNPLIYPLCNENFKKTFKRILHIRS

Cc1[nH]c2ccc(Cl)cc2c1CCN(C)C [ST 1936, 5-chloro-2-methyl-N,N-dimethyltryptamine] | ≤ 6.00
CCc1[nH]c2ccc(Cl)cc2c1CCN(C)C [ST 2253, 5-Chloro-2-ethyl-N,N-dimethyltryptamine] | ≤ 6.00

Would you kindly look at the next entry?
Quick check: pKi of Cc1[nH]c2ccc(Br)cc2c1CCN(C)C [ST 1938, 5-bromo-2-methyl-N,N-dimethyltryptamine] ?
< 6.00

====

Target: 5-HT2c (Homo sapiens, UniProt P28335)
Sequence (P28335 33-458, species assumed): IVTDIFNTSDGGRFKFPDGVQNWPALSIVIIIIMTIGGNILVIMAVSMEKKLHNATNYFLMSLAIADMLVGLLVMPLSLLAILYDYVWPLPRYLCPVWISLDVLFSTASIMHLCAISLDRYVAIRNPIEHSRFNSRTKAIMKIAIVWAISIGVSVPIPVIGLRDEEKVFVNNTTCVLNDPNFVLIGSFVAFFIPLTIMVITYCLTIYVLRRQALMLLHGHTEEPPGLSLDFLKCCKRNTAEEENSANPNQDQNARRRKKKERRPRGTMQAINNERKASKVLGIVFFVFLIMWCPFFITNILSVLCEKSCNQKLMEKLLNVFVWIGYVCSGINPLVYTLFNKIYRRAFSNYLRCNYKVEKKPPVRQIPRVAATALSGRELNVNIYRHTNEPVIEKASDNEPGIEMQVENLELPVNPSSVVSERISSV
List of Ki values.

Cc1[nH]c2ccc(Cl)cc2c1CCN(C)C | > 1000 nM

Quick check: Ki of CCc1[nH]c2ccc(Cl)cc2c1CCN(C)C ?
> 1000 nM

Same read-out for Cc1[nH]c2ccc(Br)cc2c1CCN(C)C ?
> 1000 nM

====

Target: PCP
Experiment: Receptor panel binding: PCP
Conditions: read-out: affinity (Ki), PCP
pKi: −log10 of the molar value.
REPORTED ENDPOINT: pKi

For PCP, provide pKi of Cc1[nH]c2ccc(Br)cc2c1CCN(C)C please.
< 6.00

====

Quick record: pKi, V2 of vasopressin (Homo sapiens).
pKi: −log10 of the molar value.

Solved entries:
Cc1[nH]c2ccc(Br)cc2c1CCN(C)C [ST 1938, 5-bromo-2-methyl-N,N-dimethyltryptamine] | < 6.00
Cc1[nH]c2ccc(Cl)cc2c1CCN(C)C [ST 1936, 5-chloro-2-methyl-N,N-dimethyltryptamine] | ≤ 6.00

Would you kindly look at the next entry?
Quick check: pKi of CCc1[nH]c2ccc(Cl)cc2c1CCN(C)C [ST 2253, 5-Chloro-2-ethyl-N,N-dimethyltryptamine] ?
≤ 6.00

====

Biological target: NMDA
Experiment: Receptor panel binding: NMDA
Conditions: read-out: affinity value, NMDA
pKi: −log10 of the molar value.
REPORTED ENDPOINT: pKi

Quick check: pKi of Cc1[nH]c2ccc(Br)cc2c1CCN(C)C [ST 1938, 5-bromo-2-methyl-N,N-dimethyltryptamine] ?
< 6.00

====

Target: opiate (non-selective)
Test: Receptor panel binding: opiate
Details: read-out: affinity value, opiate (non-selective)
pKi: −log10 of the molar value.
REPORTED ENDPOINT: pKi

Quick check: pKi of Cc1[nH]c2ccc(Br)cc2c1CCN(C)C ?
< 6.00

====

Molecular target: human 5-HT7 receptor stably transfected to CHO cells (Homo sapiens, UniProt P34969)
Construct: expressed in transfected cells; host or cells: CHO
Sequence (P34969 whole entry): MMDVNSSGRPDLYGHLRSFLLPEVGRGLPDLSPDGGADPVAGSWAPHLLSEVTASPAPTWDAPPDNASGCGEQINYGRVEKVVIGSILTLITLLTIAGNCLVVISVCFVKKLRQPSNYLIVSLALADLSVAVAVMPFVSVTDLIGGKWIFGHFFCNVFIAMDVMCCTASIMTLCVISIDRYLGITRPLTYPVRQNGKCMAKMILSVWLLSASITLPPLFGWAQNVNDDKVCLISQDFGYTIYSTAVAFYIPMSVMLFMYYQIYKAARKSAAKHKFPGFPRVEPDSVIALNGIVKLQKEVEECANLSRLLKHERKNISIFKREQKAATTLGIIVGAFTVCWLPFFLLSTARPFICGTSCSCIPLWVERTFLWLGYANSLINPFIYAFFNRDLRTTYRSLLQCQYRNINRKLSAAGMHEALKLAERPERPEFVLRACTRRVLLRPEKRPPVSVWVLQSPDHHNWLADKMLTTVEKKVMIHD
Test: 5-HT7 receptor binding, [3H]-LSD displacement
List of pKi values.
Answer as the number alone; pKi is minus log10 of concentration in mol/L.

Cc1[nH]c2ccc(Br)cc2c1CCN(C)C | 7.33

Would you kindly look at the next entry?
Quick check: pKi of Cc1[nH]c2ccc(Cl)cc2c1CCN(C)C ?
6.77

====

List of pKi values.
Molecular target: DA transporter (Homo sapiens, UniProt Q01959)
Sequence (Q01959 whole entry, species assumed): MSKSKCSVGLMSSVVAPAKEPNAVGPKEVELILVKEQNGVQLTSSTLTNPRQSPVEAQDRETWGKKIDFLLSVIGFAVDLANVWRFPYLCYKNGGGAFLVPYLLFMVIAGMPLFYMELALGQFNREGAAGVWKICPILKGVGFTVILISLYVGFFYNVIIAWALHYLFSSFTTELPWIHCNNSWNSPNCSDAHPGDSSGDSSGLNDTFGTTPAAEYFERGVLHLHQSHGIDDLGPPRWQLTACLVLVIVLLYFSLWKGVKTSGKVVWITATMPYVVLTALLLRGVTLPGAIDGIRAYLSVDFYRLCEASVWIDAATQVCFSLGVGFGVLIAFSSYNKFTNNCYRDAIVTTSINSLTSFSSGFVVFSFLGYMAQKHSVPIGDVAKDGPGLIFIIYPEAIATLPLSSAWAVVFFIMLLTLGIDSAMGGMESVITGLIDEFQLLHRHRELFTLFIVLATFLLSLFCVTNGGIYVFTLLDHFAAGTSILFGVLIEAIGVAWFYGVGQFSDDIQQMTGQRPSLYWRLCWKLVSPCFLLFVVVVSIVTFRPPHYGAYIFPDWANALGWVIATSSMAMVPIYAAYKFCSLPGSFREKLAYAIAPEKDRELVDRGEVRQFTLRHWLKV
pKi: −log10 of the molar value.

Solved entries:
Cc1[nH]c2ccc(Cl)cc2c1CCN(C)C | ≤ 6.00
CCc1[nH]c2ccc(Cl)cc2c1CCN(C)C | ≤ 6.00

Quick check: pKi of Cc1[nH]c2ccc(Br)cc2c1CCN(C)C ?
< 6.00

====

List of Ki values.
Molecular target: D4,4 dopaminergic (Homo sapiens)
Sequence (P21917 1-419): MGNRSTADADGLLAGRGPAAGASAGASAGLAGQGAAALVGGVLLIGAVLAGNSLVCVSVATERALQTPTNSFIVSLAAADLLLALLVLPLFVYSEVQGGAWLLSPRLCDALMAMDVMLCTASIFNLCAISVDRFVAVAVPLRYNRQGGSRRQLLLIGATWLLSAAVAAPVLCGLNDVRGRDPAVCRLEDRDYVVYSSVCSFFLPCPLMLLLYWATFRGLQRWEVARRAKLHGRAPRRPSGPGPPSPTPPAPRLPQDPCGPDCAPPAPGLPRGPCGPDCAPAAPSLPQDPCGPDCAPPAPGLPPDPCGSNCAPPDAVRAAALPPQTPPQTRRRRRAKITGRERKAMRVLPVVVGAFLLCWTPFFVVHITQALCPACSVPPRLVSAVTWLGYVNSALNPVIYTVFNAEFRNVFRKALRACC

Cc1[nH]c2ccc(Br)cc2c1CCN(C)C [ST 1938, 5-bromo-2-methyl-N,N-dimethyltryptamine] | > 1000 nM
CCc1[nH]c2ccc(Cl)cc2c1CCN(C)C [ST 2253, 5-Chloro-2-ethyl-N,N-dimethyltryptamine] | ≥ 1000 nM

Quick check: Ki of Cc1[nH]c2ccc(Cl)cc2c1CCN(C)C [ST 1936, 5-chloro-2-methyl-N,N-dimethyltryptamine] ?
≥ 1000 nM
